# protocol summary: AUC in mouse at 30 mg/kg, po
# Type: ADME, organism-based
# Parameters: dose 30 mg/kg, route oral
# condition label: plasma
experimental readout: AUC (µg·h/mL)

input smiles	experimental readout	observed
CNC(=O)c1ccc([C@]2(O)CCN(c3ccc(C#N)c(F)c3)[C@H]2C)cn1	AUC	232

###

Test system Androgen receptor (Homo sapiens, UniProt P10275, T878A), pEC50 listed for each of the compounds.
pEC50: −log10 of the molar value.

compound	measurement qualifier	pEC50
N#Cc1ccc(N2CCC(O)(c3ccc(F)cc3)C2)cc1Cl (racemic)	<	5.00
C[C@@H]1N(c2ccc(C#N)c(Cl)c2)CC[C@@]1(O)c1ccc(C(N)=O)cc1	=	5.00
CNC(=O)c1ccc([C@]2(O)CCN(c3ccc(C#N)c(Cl)c3)[C@H]2C)nc1	=	5.29
CNC(=O)c1ccc([C@@]2(O)CCN(c3ccc(C#N)c(Cl)c3)[C@@H]2C)cn1	<	5.00
CNC(=O)c1ccc([C@]2(O)CCN(c3ccc(C#N)c(Cl)c3)[C@H]2C)cn1	<	5.00
N#Cc1ccc(N2CCC(O)(c3ccccc3)C2)cc1Cl (racemic)	<	5.00
C[C@@H]1N(c2ccc(C#N)c(Cl)c2)CC[C@@]1(O)c1ccc(C(=O)N(C)C)nc1	<	5.00
C[C@@H]1N(c2ccc(C#N)c(Cl)c2)CC[C@@]1(O)c1ccc(F)cc1	=	7.70
CNC(=O)c1ccc([C@]2(O)CCN(c3ccc(C#N)c(Cl)c3)[C@H]2C)cc1	=	5.00
N#Cc1ccc(N2CCC(O)(Cc3ccccc3)C2)cc1Cl (stereo unspecified)	=	5.32
N#Cc1ccc(N2CCC(O)C2)cc1Cl (stereo unspecified)	=	6.19
